- system under test: Tau RD (MTBD) P301S fused to CFP or YFP, in HEK293 Tau RD P301S FRET Biosensor cells (UniProt P10636)
- Sequence (P10636 561-689 P618S): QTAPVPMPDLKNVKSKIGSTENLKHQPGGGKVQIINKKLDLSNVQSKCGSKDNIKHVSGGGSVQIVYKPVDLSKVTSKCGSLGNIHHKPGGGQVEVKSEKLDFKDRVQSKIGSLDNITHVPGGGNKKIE
- test details: cell-based or functional assay
attribute measured: seeding inhibition (%)

[[record]]
binder = "mCherry-VHH Mut20 (VHH, not shown: large carriers) VHH: EVQLQASGGVFVQSGGSLRLSCAASGATSTFDGMGWFRQAPGKEKEFVSAISYEQGSYTYYADSVKGRFTISRDNSKNMVYLQMNSLRAEDTATYYCAPAYEGDLYAFDSYGEQGTQVTVSS"
readout_unit = "%"
endpoint_result = 32

[[record]]
binder = "mCherry-VHH Mut5 (VHH, not shown: large carriers) VHH: EVQLQASGGVFVQSGGSLRLSCAASGATSTFDGMGWFRQAPGKEREFVSAISYEQGSYTYYADSVKGRFTISRDNSKNMVYLQMNSLRAEDTASYYCAPAYEGDLYAFDSYGGQGTQVTVSS"
readout_unit = "%"
endpoint_result = 27

[[record]]
binder = "mCherry-VHH Mut14 (VHH, not shown: large carriers) VHH: EVQLQASGGVFVQSGGSLRLSCAASGATSIFDGMGWFRQAPGKEREFVSAISYGQGSYTYYADSVKGRFTISRDNSKNMVYLQMNSLRAEDTATYYCAPAYEGDLYAFDSYGEQGTQVTVSS"
readout_unit = "%"
endpoint_result = 23

[[record]]
binder = "mCherry-VHH Mut1 (VHH, not shown: large carriers) VHH: EVQLQASGGVFVQSGGSLRLSCAASGATSTFDGMGWFRQAPGKEREFVSAISYEQGSYTYYADSVKGRFTISRDNSKNMVYLQMNSLRAEDTATYYCAPAYEGDLYAFDSYGEQGTQVTVSS"
readout_unit = "%"
endpoint_result = 50

[[record]]
binder = "mCherry-VHH Mut3 (VHH, not shown: large carriers) VHH: EVQLQASGGVFVQSGGSLRLSCAASGATSTFDGMGWFRQAPGKEKEFVSAISYEQGSYTYYADSVKGRFTISRDNSKNMVYLQMNSLRAEDTATYYCAPAYEGDLYAFDSYGGQGTQVTVSS"
readout_unit = "%"
endpoint_result = 50

[[record]]
binder = "mCherry-VHH Mut12 (VHH, not shown: large carriers) VHH: AEVQLQASGGVFVQSGGSLRLCCAASGATSTFDGMGWFRQAPGKEREFVSAISYEQGSYTYYADSVKGRFTISRDNSKNMVYLQMNSLRAEDTATYYCAPAYEGDLYAFDSYGEQGTQVTVSS"
readout_unit = "%"
endpoint_result = 48

